selectivity ratio listing for selected compounds.
Test: Selectivity index, ratio of IC50 for rat L6 cells to IC50 for Leishmania donovani MHOM/SD/62/1S-CL2D amastigotes
Format: toxicity, cell-based
Settings: read-out: Ratio IC50
Observed property: selectivity ratio

{"Structure string": "CC(C)NC(=N)c1ccc(OCc2ccccc2COc2ccc(C(=N)NC(C)C)cc2)cc1", "Observed property": "selectivity ratio", "Relation sign": "=", "Observed value": 14}
{"Structure string": "CONC(=N)c1ccc(OCc2cccc(COc3ccc(C(=N)NOC)cc3)c2)cc1", "Observed property": "selectivity ratio", "Relation sign": "<", "Observed value": 0.336}
{"Structure string": "N=C(NO)c1ccc(OCc2cccc(COc3ccc(C(=N)NO)cc3)c2)cc1", "Observed property": "selectivity ratio", "Relation sign": "<", "Observed value": 0.0653}
{"Structure string": "CC(C)NC(=N)c1cccc(OCc2ccccc2COc2cccc(C(=N)NC(C)C)c2)c1", "Observed property": "selectivity ratio", "Relation sign": "<", "Observed value": 5.41}
{"Structure string": "CC(C)NC(=N)c1ccc(OCc2ccc(COc3ccc(C(=N)NC(C)C)cc3)c3ccccc23)cc1", "Observed property": "selectivity ratio", "Relation sign": "=", "Observed value": 4.29}
{"Structure string": "CC(C)NC(=N)c1ccc(OCc2cccc(COc3ccc(C(=N)NC(C)C)cc3)c2)cc1", "Observed property": "selectivity ratio", "Relation sign": ">", "Observed value": 23.2}
{"Structure string": "N=C(N)c1cccc(OCc2ccccc2COc2cccc(C(=N)N)c2)c1", "Observed property": "selectivity ratio", "Relation sign": "=", "Observed value": 15.4}
{"Structure string": "N=C(N)c1ccc(OCc2ccccc2COc2ccc(C(=N)N)cc2)cc1", "Observed property": "selectivity ratio", "Relation sign": "=", "Observed value": 7.87}
{"Structure string": "N=C(N)c1cccc(OCc2ccc(COc3cccc(C(=N)N)c3)cc2)c1", "Observed property": "selectivity ratio", "Relation sign": "<", "Observed value": 0.0401}
